- system-tested: T1, EsCas13d, nuclease-dead (Eubacterium siraeum, UniProt B0MS50, R295A;H300A;R849A;H854A)
- T1 sequence: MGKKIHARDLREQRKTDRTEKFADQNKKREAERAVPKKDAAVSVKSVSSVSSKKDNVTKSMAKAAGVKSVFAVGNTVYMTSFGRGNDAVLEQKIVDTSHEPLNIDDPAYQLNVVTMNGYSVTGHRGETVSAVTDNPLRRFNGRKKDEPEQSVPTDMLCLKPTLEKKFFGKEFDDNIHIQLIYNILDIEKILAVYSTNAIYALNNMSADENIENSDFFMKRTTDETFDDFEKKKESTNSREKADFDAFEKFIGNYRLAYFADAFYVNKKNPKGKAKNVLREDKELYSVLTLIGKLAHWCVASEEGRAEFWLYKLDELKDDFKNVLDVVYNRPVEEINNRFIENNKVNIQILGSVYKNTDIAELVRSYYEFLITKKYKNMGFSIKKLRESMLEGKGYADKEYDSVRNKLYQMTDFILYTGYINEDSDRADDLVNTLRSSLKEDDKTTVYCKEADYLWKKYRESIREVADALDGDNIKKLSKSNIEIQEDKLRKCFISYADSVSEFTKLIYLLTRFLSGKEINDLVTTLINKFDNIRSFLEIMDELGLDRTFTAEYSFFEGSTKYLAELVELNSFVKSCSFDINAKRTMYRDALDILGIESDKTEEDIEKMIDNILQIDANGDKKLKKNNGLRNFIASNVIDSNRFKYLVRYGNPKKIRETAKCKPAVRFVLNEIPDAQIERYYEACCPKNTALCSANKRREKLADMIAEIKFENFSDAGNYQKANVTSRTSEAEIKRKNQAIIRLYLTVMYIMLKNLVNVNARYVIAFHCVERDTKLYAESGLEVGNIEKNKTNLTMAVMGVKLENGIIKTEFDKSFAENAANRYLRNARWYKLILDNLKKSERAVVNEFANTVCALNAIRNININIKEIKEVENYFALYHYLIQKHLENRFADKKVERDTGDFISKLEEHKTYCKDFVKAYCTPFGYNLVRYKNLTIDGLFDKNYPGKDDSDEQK
- experiment-notes: crRNA (strand 1, pre-loaded); Mg2+; 40 mM Tris-HCl pH 7.5, 150 mM NaCl, 6 mM MgCl2, 1 mM DTT, 0.1% Tween-20, 0.2 mg/ml BSA; 25 C; 10 min per concentration, then washed
- experimental-context: tags: His6-TwinStrep-SUMO cleaved; N-terminal SNAP kept (SNAP-Surface 488); label: 3' end held by stalled T7 RNA polymerase

binder	Kd / nM
target 2 MT 5'PFS GGG 3'PFS CCG (mixed) RNA 1: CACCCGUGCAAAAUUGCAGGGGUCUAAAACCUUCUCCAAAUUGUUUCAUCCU RNA 2: GGGAAUGGAUCCACAUCUACGAAUUCGGGAGGAUGAAACAAUUUGGAGAAGCCGAGAUCGGAAGAGCACACGU	11.6
target 2 MT 5'PFS UAG 3'PFS AUU (mixed) RNA 1: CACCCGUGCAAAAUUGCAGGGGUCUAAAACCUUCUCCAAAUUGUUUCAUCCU RNA 2: GGGAAUGGAUCCACAUCUACGAAUUCUAGAGGAUGAAACAAUUUGGAGAAGAUUAGAUCGGAAGAGCACACGU	2.93

// provenance: paper PMC10786891
